Value source: patent US20260274955A1

- experimental-system: Anti-CD28 Fab (SEQ ID NOs: 202, 203)
- Sequence (VH, as listed by the source, chain 1 of 2): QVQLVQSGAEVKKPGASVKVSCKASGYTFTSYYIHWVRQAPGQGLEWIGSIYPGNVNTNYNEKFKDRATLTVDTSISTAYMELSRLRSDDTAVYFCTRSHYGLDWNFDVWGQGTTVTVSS
- Sequence (VL, as listed by the source, chain 2 of 2): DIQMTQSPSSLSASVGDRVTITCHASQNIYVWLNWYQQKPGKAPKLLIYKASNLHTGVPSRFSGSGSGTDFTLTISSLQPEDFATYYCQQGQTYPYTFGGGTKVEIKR
- experiment-summary: phage binding ELISA on captured Fab; competitor CD28 antigen;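 further: wells pretreated with CD28 antigen in blocking buffer or buffer only, then clonal phage supernatants added briefly without washing, bound phage detected via horseradish-conjugated anti-M13 antibody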
outcome-measure: Anti-CD28 Fab signal in the presence of CD28
API doc: respond with a numeric literal and nothing else, no unit.

# count of solved cases: 10
1. YCEGHLPEYREKCL [Phage-34] ... 0.07
2. YCEGHLPQYMQKCL [Phage-60] ... 0.12
3. YCAGHSPEHMWKCL [Phage-98] ... 0.06
4. YCEGHAPEYMLKCL [Phage-146] ... 0.07
5. YCMGHAPEYMAKCL [Phage-68] ... 0.09
6. YCEGHTAEYMQKCL [Phage-67] ... 0.08
7. YCEGHTMEYMWKCL [Phage-90] ... 0.07
8. YCEGHLPEYIQKCL [Phage-42] ... 0.08
9. YCAGHLPQYMSKCL [Phage-72] ... 0.11
10. YCDGHIEEYRAKCL [Phage-145] ... 0.07

Consider now this further binder.
Anti-CD28 Fab signal in the presence of CD28 reading for YCEGHAPEYIAKCL [Phage-29] : 0.09
